Sourced from the supplement of paper PMC4962491

test system: FaDu; test: mitochondrial oxygen consumption rate normalised to cell number, Z score vs plate DMSO wells; higher = higher oxygen consumption (negative = OCR reduction); details: 2 µM; treatment time 24 h; assay medium: 5 mM glucose, 5 mM pyruvate, 4 mM glutamine;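 note: compound exposure in DMEM (4 mM L-glutamine, 5 mM glucose), antimycin A injected at 2 µM after the basal reading and its residual OCR subtracted from basal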
property_measured: mitochondrial oxygen consumption rate normalised

{"compound": "CCCCCCc1ccc(O)cc1O.Nc1c2ccccc2nc2ccccc12", "tested_target": "FaDu", "reading": -2.14}
{"compound": "CC(=O)[C@H]1CC[C@H]2[C@@H]3CCC4=CC(=O)CC[C@]4(C)[C@H]3CC[C@]12C", "tested_target": "FaDu", "reading": -0.631}
{"compound": "Oc1c(Br)cc(Br)c2cccnc12", "tested_target": "FaDu", "reading": -0.243}
{"compound": "CCOc1ccc2nc3cc(N)ccc3c(N)c2c1", "tested_target": "FaDu", "reading": -3.32}
{"compound": "CC(C)OC(=O)C(C)(C)Oc1ccc(C(=O)c2ccc(Cl)cc2)cc1", "tested_target": "FaDu", "reading": 0.455}
{"compound": "O=c1cc[nH]c(=S)[nH]1", "tested_target": "FaDu", "reading": -0.279}
{"compound": "N=C(NCCCCCCNC(=N)NC(=N)Nc1ccc(Cl)cc1)NC(=N)Nc1ccc(Cl)cc1", "tested_target": "FaDu", "reading": -0.184}
{"compound": "CO[C@H](C(=O)[C@@H](O)[C@@H](C)O)[C@@H]1Cc2cc3cc(O[C@H]4C[C@@H](O[C@@H]5C[C@@H](O)[C@H](O)[C@@H](C)O5)[C@H](O)[C@@H](C)O4)c(C)c(O)c3c(O)c2C(=O)[C@H]1O[C@H]1C[C@@H](O[C@@H]2C[C@@H](O)[C@@H](O[C@@H]3C[C@](C)(O)[C@H](O)[C@@H](C)O3)[C@@H](C)O2)[C@H](O)[C@@H](C)O1", "tested_target": "FaDu", "reading": -7.79}
{"compound": "NS(=O)(=O)c1cc2c(cc1Cl)N=CNS2(=O)=O", "tested_target": "FaDu", "reading": 0.0559}
{"compound": "CCN(CC)CCCC(C)Nc1c2ccc(Cl)cc2nc2ccc(OC)cc12 (stereo unspecified)", "tested_target": "FaDu", "reading": -2.47}
{"compound": "CN1[C@@H]2CC[C@H]1C[C@@H](OC(=O)c1c[nH]c3ccccc13)C2", "tested_target": "FaDu", "reading": -0.138}
{"compound": "C[n+]1cc2c3c(ccc2c2ccc4cc5c(cc4c21)OCO5)OCO3", "tested_target": "FaDu", "reading": -0.66}
{"compound": "N[C@@H](Cc1ccc(O)c(O)c1)C(=O)O", "tested_target": "FaDu", "reading": 1.31}
{"compound": "Cc1cc(C(C)(C)CC(C)(C)C)ccc1OCCOCC[N+](C)(C)Cc1ccccc1", "tested_target": "FaDu", "reading": -5.29}
{"compound": "COc1cccc2c1C(=O)c1c(O)c3c(c(O)c1C2=O)C[C@@](O)(C(=O)CO)C[C@@H]3O[C@H]1C[C@H](N)[C@@H](O)[C@H](C)O1", "tested_target": "FaDu", "reading": 1.18}
{"compound": "Cc1ccc2c(Br)cc(Br)c(OC(=O)c3ccccc3)c2n1", "tested_target": "FaDu", "reading": -3.89}
{"compound": "CCCCCCCCCc1ccc(OCCOCCOCCOCCOCCOCCOCCOCCOCCO)cc1", "tested_target": "FaDu", "reading": -3.38}
{"compound": "O=C(O)c1cc(/N=N/c2ccc(O)c(C(=O)O)c2)ccc1O", "tested_target": "FaDu", "reading": -0.373}
{"compound": "C#C[C@]1(O)CC[C@H]2[C@@H]3CCC4=CC(=O)CC[C@@H]4[C@H]3CC[C@@]21CC", "tested_target": "FaDu", "reading": 1.15}
{"compound": "CC(C)NCC(O)COc1ccc(CC(N)=O)cc1 (stereo unspecified)", "tested_target": "FaDu", "reading": 0.178}
{"compound": "C[n+]1c2cc(N)ccc2cc2ccc(N)cc21", "tested_target": "FaDu", "reading": -5.7}
{"compound": "CN(C)C(=O)C(CCN1CCC(O)(c2ccc(Cl)cc2)CC1)(c1ccccc1)c1ccccc1", "tested_target": "FaDu", "reading": 0.593}
{"compound": "CCCCCCCCCCCCCCCC[N+](C)(C)C", "tested_target": "FaDu", "reading": -10.1}
{"compound": "CCN(CC)CCOC(=O)C(c1ccccc1)C1CCCCC1 (stereo unspecified)", "tested_target": "FaDu", "reading": 1.23}
{"compound": "COc1ccc(C[C@H](N)C(=O)N[C@H]2[C@@H](O)[C@H](n3cnc4c(N(C)C)ncnc43)O[C@@H]2CO)cc1", "tested_target": "FaDu", "reading": -3.4}
{"compound": "Nc1c2ccccc2nc2ccccc12", "tested_target": "FaDu", "reading": -2.4}
{"compound": "Cc1c2oc3c(C)ccc(C(=O)N[C@@H]4C(=O)N[C@H](C(C)C)C(=O)N5CCC[C@H]5C(=O)N(C)CC(=O)N(C)[C@@H](C(C)C)C(=O)O[C@@H]4C)c3nc-2c(C(=O)N[C@@H]2C(=O)N[C@H](C(C)C)C(=O)N3CCC[C@H]3C(=O)N(C)CC(=O)N(C)[C@@H](C(C)C)C(=O)O[C@@H]2C)c(N)c1=O", "tested_target": "FaDu", "reading": -9.57}
{"compound": "Cc1cc(CC(C)CC(C)(C)C)n(O)c(=O)c1 (stereo unspecified)", "tested_target": "FaDu", "reading": -4.87}
{"compound": "Clc1ccc(COC(Cn2ccnc2)c2ccc(Cl)cc2Cl)cc1 (stereo unspecified)", "tested_target": "FaDu", "reading": 0.111}
{"compound": "CC(=O)Oc1ccccc1C(=O)Nc1ncc([N+](=O)[O-])s1", "tested_target": "FaDu", "reading": 1.82}
{"compound": "O=C1C(O)=C([C@H]2CC[C@H](c3ccc(Cl)cc3)CC2)C(=O)c2ccccc21", "tested_target": "FaDu", "reading": -0.111}
{"compound": "CC(C(O)c1ccc(O)cc1)N1CCC(Cc2ccccc2)CC1 (stereo unspecified)", "tested_target": "FaDu", "reading": -0.938}
{"compound": "CO[C@H]1C[C@H](O[C@H]2[C@H](C)O[C@@H](O[C@@H]3/C(C)=C/C[C@@H]4C[C@@H](C[C@]5(C=C[C@H](C)[C@@H](C6CCCCC6)O5)O4)OC(=O)[C@@H]4C=C(C)[C@@H](O)[C@H]5OC/C(=C\\C=C\\[C@@H]3C)[C@]54O)C[C@@H]2OC)O[C@@H](C)[C@@H]1O", "tested_target": "FaDu", "reading": -0.504}
{"compound": "CCCCCCCCCCCCCCCC[N+](C)(C)CCN(Cc1ccc(OC)cc1)c1ncccn1", "tested_target": "FaDu", "reading": 0.248}
{"compound": "CO[C@@]12[C@H](COC(N)=O)C3=C(C(=O)C(C)=C(N)C3=O)N1C[C@@H]1N[C@@H]12", "tested_target": "FaDu", "reading": -1.73}
{"compound": "CCN(CC)CCCC(C)Nc1ccnc2cc(Cl)ccc12 (stereo unspecified)", "tested_target": "FaDu", "reading": -0.792}
